The following compounds have recorded IC50 on EGFR WT (Homo sapiens (Human), UniProt P00533).
Sequence (P00533 25-1210): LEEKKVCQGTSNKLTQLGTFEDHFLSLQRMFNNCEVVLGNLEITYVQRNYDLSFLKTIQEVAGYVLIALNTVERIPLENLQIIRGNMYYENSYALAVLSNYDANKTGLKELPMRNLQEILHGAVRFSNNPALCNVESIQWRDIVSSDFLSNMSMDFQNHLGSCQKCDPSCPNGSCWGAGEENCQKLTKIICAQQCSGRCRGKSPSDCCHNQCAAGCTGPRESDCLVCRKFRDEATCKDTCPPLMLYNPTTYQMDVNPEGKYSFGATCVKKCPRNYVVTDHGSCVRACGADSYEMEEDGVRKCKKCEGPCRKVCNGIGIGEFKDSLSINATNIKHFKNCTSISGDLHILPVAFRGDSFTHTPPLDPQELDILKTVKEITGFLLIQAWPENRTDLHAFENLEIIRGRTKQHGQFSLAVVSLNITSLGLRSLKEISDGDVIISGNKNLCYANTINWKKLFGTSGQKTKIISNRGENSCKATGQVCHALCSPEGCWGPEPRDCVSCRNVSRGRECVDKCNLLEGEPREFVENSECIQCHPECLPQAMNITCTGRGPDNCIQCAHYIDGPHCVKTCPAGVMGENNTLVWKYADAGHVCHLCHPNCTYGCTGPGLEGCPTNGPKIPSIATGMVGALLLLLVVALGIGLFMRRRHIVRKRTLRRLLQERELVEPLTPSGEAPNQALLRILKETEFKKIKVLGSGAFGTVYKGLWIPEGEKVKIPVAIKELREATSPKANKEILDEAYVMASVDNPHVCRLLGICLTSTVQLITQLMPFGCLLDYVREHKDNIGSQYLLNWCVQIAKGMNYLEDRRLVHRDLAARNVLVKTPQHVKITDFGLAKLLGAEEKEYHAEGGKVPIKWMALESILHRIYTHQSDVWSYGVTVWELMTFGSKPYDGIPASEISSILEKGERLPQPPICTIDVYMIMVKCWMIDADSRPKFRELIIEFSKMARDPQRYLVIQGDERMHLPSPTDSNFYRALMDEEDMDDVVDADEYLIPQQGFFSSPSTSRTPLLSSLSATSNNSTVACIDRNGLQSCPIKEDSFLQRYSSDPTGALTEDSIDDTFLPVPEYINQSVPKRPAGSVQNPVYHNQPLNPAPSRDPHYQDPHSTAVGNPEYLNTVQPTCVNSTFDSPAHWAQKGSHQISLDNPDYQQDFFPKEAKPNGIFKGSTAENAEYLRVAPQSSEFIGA
Where a name gives a salt, the structure may show the parent alone.
Endpoint label: IC50

{"Compound": "C=C1CCN(C2CCN(c3ccc4ncnc(Nc5ccc(Oc6ccc7c(c6)nnn7C)c(C)c5F)c4n3)CC2)C1=O", "Endpoint label": "IC50", "Value": "≥ 1000 nM"}
{"Compound": "C=CC(=O)N1CC=C(c2ncc3ncnc(Nc4ccc(Oc5ccn6ncnc6c5)c(C)c4F)c3n2)C[C@@H]1C", "Endpoint label": "IC50", "Value": "100 to 500 nM"}
{"Compound": "C=CC(=O)N[C@@H]1C[C@@H](F)CN(c2ccc3ncnc(Nc4ccc(Oc5ccc6c(c5)nnn6C)c(C)c4F)c3n2)C1", "Endpoint label": "IC50", "Value": "100 to 500 nM"}
{"Compound": "C=CC(=O)N1CCN(c2ccc3ncnc(Nc4ccc(Oc5cc(F)c6c(c5)nnn6C)c(C)c4)c3n2)CC1", "Endpoint label": "IC50", "Value": "< 50 nM"}
{"Compound": "C=CC(=O)N(C)[C@@H]1CCCN(c2ncc3ncnc(Nc4ccc(Oc5ccc6c(c5)nnn6C)c(C)c4)c3n2)C1", "Endpoint label": "IC50", "Value": "100 to 500 nM"}
{"Compound": "C=CC(=O)N1CCN(c2ccc3ncnc(Nc4ccc(Oc5ccc6c(c5)nnn6C)c(C)c4F)c3n2)C[C@@H]1C", "Endpoint label": "IC50", "Value": "100 to 500 nM"}
{"Compound": "C=CC(=O)N1CC2CC(C1)N2c1ccc2ncnc(Nc3ccc(Oc4ccc5c(c4)nnn5C)c(C)c3)c2n1", "Endpoint label": "IC50", "Value": "100 to 500 nM"}
{"Compound": "C=CC(=O)N[C@@H]1CCCCN(c2ncc3ncnc(Nc4ccc(Oc5ccc6c(c5)nnn6C)c(C)c4F)c3n2)C1", "Endpoint label": "IC50", "Value": "100 to 500 nM"}
{"Compound": "C=CC(=O)N[C@H]1CCN(c2ccc3ncnc(Nc4ccc(Oc5ccc6c(c5)nnn6C)c(C)c4F)c3n2)C[C@H]1F", "Endpoint label": "IC50", "Value": "< 50 nM"}
{"Compound": "C=CC(=O)N1C2CCCC1CC(c1ccc3ncnc(Nc4ccc(Oc5ccc6c(c5)nnn6C)c(C)c4F)c3n1)C2 (centres unmarked) [Compound 402, trifluoroacetate]", "Endpoint label": "IC50", "Value": "100 to 500 nM"}
{"Compound": "C=CC(=O)N[C@H]1C[C@@H](C)CN(c2ccc3ncnc(Nc4ccc(Oc5ccc6c(c5)nnn6C)c(C)c4F)c3n2)C1 (single isomer, unassigned)", "Endpoint label": "IC50", "Value": "100 to 500 nM"}
{"Compound": "C=CC(=O)N1CCN(c2ncc3ncnc(Nc4ccc(Oc5ccc6c(c5)nnn6C)c(C)c4)c3n2)C[C@@H]1COC", "Endpoint label": "IC50", "Value": "100 to 500 nM"}
{"Compound": "C=CC(=O)N1CCN(c2ncc3ncnc(Nc4ccc(Oc5ccc6c(c5)nnn6C)c(C)c4)c3c2F)CC1", "Endpoint label": "IC50", "Value": "500 to 1000 nM"}
{"Compound": "C=CC(=O)N1CCN(c2ncc3ncnc(Nc4ccc(Oc5ccc6c(c5)nnn6C)c(C)c4)c3n2)C[C@@H]1C(C)C", "Endpoint label": "IC50", "Value": "≥ 1000 nM"}
{"Compound": "C=CC(=O)NC1CC(N(C)c2ncc3ncnc(Nc4ccc(Oc5ccc6c(c5)nnn6C)c(C)c4)c3n2)C1 (centres unmarked)", "Endpoint label": "IC50", "Value": "100 to 500 nM"}
{"Compound": "C=CC(=O)N[C@H]1CCN(c2ccc3ncnc(Nc4ccc(Oc5ccc6c(c5)nnn6C)c(C)c4F)c3n2)CC1(C)C", "Endpoint label": "IC50", "Value": "100 to 500 nM"}
{"Compound": "C=CC(=O)N1[C@H](C)CN(c2ccc3ncnc(Nc4ccc(Oc5ccc6c(c5)nnn6C)c(C)c4)c3n2)C[C@H]1C", "Endpoint label": "IC50", "Value": "≥ 1000 nM"}
{"Compound": "C=CC(=O)N1C2CCC1CN(c1ccc3ncnc(Nc4ccc(Oc5ccc6c(c5)nnn6C)c(C)c4)c3n1)C2", "Endpoint label": "IC50", "Value": "100 to 500 nM"}
{"Compound": "Cc1cc(Nc2ncnc3ccc(N4CC5CC(C4)N5C(=O)/C=C/C(F)F)nc23)ccc1Oc1ccc2c(c1)nnn2C", "Endpoint label": "IC50", "Value": "100 to 500 nM"}
{"Compound": "C=C(F)C(=O)N1CCN(c2ncc3ncnc(Nc4ccc(Oc5ccc6c(c5)nnn6C)c(C)c4)c3n2)C[C@H]1CF (single isomer, unassigned)", "Endpoint label": "IC50", "Value": "≥ 1000 nM"}
{"Compound": "C=C(F)C(=O)N1C2C=C(c3ccc4ncnc(Nc5ccc(Oc6ccc7c(c6)nnn7C)c(C)c5)c4n3)CC1COC2 (centres unmarked) [Compound 410, trifluoroacetate]", "Endpoint label": "IC50", "Value": "≥ 1000 nM"}
{"Compound": "C=CC(=O)N1CCN(c2ncc3ncnc(Nc4ccc(Oc5ccc6c(c5)nnn6C)c(C)c4)c3n2)C[C@@H]1CF (single isomer, unassigned)", "Endpoint label": "IC50", "Value": "< 50 nM"}
{"Compound": "C=CC(=O)N[C@@]1(C)CCN(c2ncc3ncnc(Nc4ccc(Oc5ccc6c(c5)nnn6C)c(C)c4)c3n2)C1", "Endpoint label": "IC50", "Value": "100 to 500 nM"}
{"Compound": "C=CC(=O)N1CCN(c2ncc3ncnc(Nc4ccc(Oc5cc(F)c6c(c5)ncn6C)c(C)c4)c3n2)CC[C@@H]1C", "Endpoint label": "IC50", "Value": "100 to 500 nM"}
{"Compound": "C=CC(=O)N[C@H]1C[C@@H](C)CN(c2ncc3ncnc(Nc4ccc(Oc5ccc6c(c5)nnn6C)c(C)c4F)c3n2)C1 (single isomer, unassigned)", "Endpoint label": "IC50", "Value": "50 to 100 nM"}
{"Compound": "C=CC(=O)N1CCN(c2ncc3ncnc(Nc4ccc(Oc5ccc6c(c5)nnn6C)c(C)c4)c3n2)C[C@H]1CO", "Endpoint label": "IC50", "Value": "100 to 500 nM"}
